molecular target: Acetylcholinesterase (Electrophorus electricus); test: Inhibition of electric eel […] iodide as substrate preincubated for 5 mins followed by substrate addition and measured after 2 mins by Ellman's method
Sequence (O42275 whole entry): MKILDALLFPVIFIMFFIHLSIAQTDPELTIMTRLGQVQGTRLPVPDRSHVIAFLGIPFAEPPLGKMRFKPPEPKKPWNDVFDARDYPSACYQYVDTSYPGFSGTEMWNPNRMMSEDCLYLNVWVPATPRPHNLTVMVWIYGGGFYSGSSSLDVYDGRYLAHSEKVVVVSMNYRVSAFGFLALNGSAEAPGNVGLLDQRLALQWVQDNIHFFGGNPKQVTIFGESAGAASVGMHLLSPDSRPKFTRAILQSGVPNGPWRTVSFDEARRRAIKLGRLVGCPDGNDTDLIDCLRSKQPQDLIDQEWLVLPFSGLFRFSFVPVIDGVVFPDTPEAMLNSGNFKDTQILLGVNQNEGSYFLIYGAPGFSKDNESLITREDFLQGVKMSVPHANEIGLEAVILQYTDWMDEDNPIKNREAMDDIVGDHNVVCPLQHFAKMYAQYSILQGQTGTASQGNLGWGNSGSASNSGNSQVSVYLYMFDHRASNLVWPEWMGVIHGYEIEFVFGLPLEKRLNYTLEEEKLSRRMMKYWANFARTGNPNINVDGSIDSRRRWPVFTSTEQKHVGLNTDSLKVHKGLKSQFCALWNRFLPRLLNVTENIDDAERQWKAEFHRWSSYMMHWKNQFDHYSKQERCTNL
Measurement Name: IC50 (µM)
Form entry: value (µM) — number only.

The following compounds have reported results that may help.
Clc1ccc(C(Cn2ccnc2)OCc2cccnc2)c(Cl)c1 (centres undefined) ... 11.9
Clc1ccccc1C(Cn1ccnc1)OCc1nc2ccccc2s1 (centres undefined) ... 58.7
Clc1ccc(C(Cn2ccnc2)OCc2ccsc2)c(Cl)c1 (centres undefined) ... 18.3
Clc1ccc(COC(Cn2ccnc2)c2ccc(Cl)cc2Cl)c(Cl)c1 (centres undefined) ... 2.4
Clc1ccc(C(Cn2ccnc2)OCc2cc3ccccc3s2)c(Cl)c1 (centres undefined) ... 15.5

Record Clc1ccc(C(Cn2ccnc2)OCc2cccc3ccccc23)c(Cl)c1 (centres undefined) ; system Acetylcholinesterase (Electrophorus electricus); IC50 = 90.4

IC50 value, target or system Acetylcholinesterase (Electrophorus electricus), for Clc1ccc(C(Cn2ccnc2)OCc2ccc3ccccc3c2)c(Cl)c1 (centres undefined) : 4.3

Value sought: IC50, system Acetylcholinesterase (Electrophorus electricus), item Clc1ccc(C(Cn2ccnc2)OCc2nc3ccccc3s2)c(Cl)c1 (centres undefined) . Result: 13.1

Acetylcholinesterase (Electrophorus electricus) data for Clc1ccc(C(Cn2ccnc2)OCc2nc3ccccc3o2)c(Cl)c1 (centres undefined) ; its IC50: 44.6

// data source = ChEMBL document CHEMBL4715883
